# Neutralization IC50, H1-TX91 annotations
Target: HA of ca A/Texas/36/91 (H1N1) (influenza A virus)
Assay: cell-based or functional assay
Kindly answer with a numeric value in µg/mL, unit omitted.

// solved cases for Neutralization IC50, H1-TX91 follow
BINDER | REPORTED_MEASUREMENT
Antibody 3 (antibody, V domains shown) VH: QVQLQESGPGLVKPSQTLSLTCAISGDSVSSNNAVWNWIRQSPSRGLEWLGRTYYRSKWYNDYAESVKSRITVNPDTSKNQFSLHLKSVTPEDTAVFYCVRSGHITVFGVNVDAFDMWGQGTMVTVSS VL: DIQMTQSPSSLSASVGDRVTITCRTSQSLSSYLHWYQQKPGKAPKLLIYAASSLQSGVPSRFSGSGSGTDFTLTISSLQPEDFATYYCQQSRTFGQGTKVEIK | 0.6
Antibody 5 (antibody, V domains shown) VH: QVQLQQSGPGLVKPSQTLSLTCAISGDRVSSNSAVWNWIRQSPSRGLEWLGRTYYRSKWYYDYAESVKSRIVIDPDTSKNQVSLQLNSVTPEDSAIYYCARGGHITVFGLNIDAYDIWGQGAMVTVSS VL: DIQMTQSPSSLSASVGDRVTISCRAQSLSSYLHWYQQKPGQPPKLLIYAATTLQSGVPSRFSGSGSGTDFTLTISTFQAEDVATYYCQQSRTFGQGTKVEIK | 0.76

[ask] Look up and state reported Neutralization IC50, H1-TX91 for Antibody 6 (antibody, V domains shown) VH: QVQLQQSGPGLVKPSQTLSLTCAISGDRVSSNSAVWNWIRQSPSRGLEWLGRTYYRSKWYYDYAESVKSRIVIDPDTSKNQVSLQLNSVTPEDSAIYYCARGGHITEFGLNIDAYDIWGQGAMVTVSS VL: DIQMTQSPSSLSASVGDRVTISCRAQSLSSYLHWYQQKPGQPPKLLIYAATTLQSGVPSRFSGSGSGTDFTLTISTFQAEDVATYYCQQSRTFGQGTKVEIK
[reply] 2.2

[ask] Look up and state reported Neutralization IC50, H1-TX91 for Antibody 8 (antibody, V domains shown) VH: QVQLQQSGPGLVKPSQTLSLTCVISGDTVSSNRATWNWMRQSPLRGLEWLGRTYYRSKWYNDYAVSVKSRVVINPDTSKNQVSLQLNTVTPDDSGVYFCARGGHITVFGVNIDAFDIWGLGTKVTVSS VL: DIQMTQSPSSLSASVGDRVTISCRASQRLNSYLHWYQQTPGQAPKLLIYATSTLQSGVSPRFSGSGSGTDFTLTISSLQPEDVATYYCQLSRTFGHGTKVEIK
[reply] 0.7
